# Tested on: OVCAR-5 ovarian
# TEST_SUMMARY: NCI-60 one-dose screen, 48 h (100 = growth as untreated, 0 = no growth, -100 = all killed)
# TEST_CONDITIONS: 10 µM unless noted
Compounds without any hit were thinned out: in the full panel of roughly 83,000, 20% have a hit.
So I've got a bunch of molecules here, and I need their growth values.
Use % as the unit, but write only the number.

Task item: Supply measured growth of CCCCCCCCC(C)OC(=O)c1nn(C(C)=O)c2ccccc12 (stereo not given) in your reply.
Reply: 104

Task item: Supply measured growth of "CC(C)(C)n1cc(-c2ccnc(NCCNS(=O)(=O)c3ccc(Cl)cc3)c2)c(-c2cccc(O)c2)n1" in your reply.
Reply: 80.9

Task item: Supply measured growth of CC(C)(C)OC(=O)NC(CSCc1ccccc1)C(=O)ON1C(=O)CCC1=O (stereo not given) in your reply.
Reply: 106

Task item: Supply measured growth of "COc1ccc2c(c1)[nH]c(=O)c1c3cc(C)c(C)cc3cn21" in your reply.
Reply: 28.8

Task item: Supply measured growth of "C=C[C@@H]1C[C@@H]2Cc3c(C)cc(C)cc3N1O2" in your reply.
Reply: 86.5

====

# System: HT29 colon
# TEST_SUMMARY: NCI-60 one-dose screen, 48 h
# TEST_CONDITIONS: 10 µM unless noted
# Description: Growth inhibition of the HT29 human tumor cell line is measured as a screen for anti-cancer activity. Cells are grown in 96 well plates and exposed to the test compound for 48 hours. Compounds are tested at a single concentration, which is 10^-5 M for most compounds. The reported endpoint is percent growth (GI% or GIPRCNT), where numbers from 0 - 100% represent growth inhibition, and numbers from -100% - 0 represent cell death. For example, a value of 40 represents 60% growth inhibition. […]
This is part of a sample that, as a whole, favours compounds with a hit. Of some 83,000 tested, about 20% had one in any assay. Active and inactive are the calls of the source. Rule for the calls: active = growth percent below 10; inactive = the rest.
Can you answer with just one of these options? active, inactive

Task item: Just curious, what result did "COc1ccc(S(=O)(=O)n2cc(C(=O)C(=O)Nc3ccncc3)c3ccccc32)cc1F" get here?
Reply: inactive

Task item: Just curious, what result did "COc1ccc(-c2nc(-c3nc4cc(C)c(C)cc4[nH]3)cc3c2[nH]c2ccccc23)cc1" get here?
Reply: active

Task item: Just curious, what result did "O=C(c1ccccc1)c1c(/C=C/c2ccccc2)c2ccccc2[nH]c1=O" get here?
Reply: inactive

Task item: Just curious, what result did "O=C(/C=C/c1ccccc1)c1cccc(O)c1" get here?
Reply: inactive

Task item: Just curious, what result did "COc1ccc(/C(C#N)=C/c2cc(OC)c(OC)c(OC)c2)cc1" get here?
Reply: active

Task item: Just curious, what result did Cc1csc(NC(c2ccccc2)c2c(C)nc3ccccn23)n1 (stereo not given) get here?
Reply: inactive

Task item: Just curious, what result did "O=C(Nc1cccc(-n2cc(-c3ccncc3)c(-c3ccc(Cl)c(O)c3)n2)c1)c1ccccc1" get here?
Reply: inactive

Task item: Just curious, what result did "COc1ccc(N=Cc2c(O)ccc3c2oc2cc(Cl)c(O)c(Cl)c23)cc1" get here?
Reply: inactive

Task item: Just curious, what result did "O=C(Nc1cccc(-n2cc(-c3ccncc3)c(-c3ccc(Cl)c(O)c3)n2)c1)Nc1cccc(C(F)(F)F)c1" get here?
Reply: inactive

Task item: Just curious, what result did "COc1ccc(-c2cc3c(OC)c(OC)c(OC)cc3oc2=O)cc1" get here?
Reply: inactive

Hey, just so you know, these numbers are from PubChem BioAssay (NCI).
